Target: non-mutated CFTR (Homo sapiens)
Construct: endogenous in cells; host or cells: human glandular (lacrimal gland) epithelial cells, polarised on Snapwell filters
Sequence (P13569 whole entry, change not shown): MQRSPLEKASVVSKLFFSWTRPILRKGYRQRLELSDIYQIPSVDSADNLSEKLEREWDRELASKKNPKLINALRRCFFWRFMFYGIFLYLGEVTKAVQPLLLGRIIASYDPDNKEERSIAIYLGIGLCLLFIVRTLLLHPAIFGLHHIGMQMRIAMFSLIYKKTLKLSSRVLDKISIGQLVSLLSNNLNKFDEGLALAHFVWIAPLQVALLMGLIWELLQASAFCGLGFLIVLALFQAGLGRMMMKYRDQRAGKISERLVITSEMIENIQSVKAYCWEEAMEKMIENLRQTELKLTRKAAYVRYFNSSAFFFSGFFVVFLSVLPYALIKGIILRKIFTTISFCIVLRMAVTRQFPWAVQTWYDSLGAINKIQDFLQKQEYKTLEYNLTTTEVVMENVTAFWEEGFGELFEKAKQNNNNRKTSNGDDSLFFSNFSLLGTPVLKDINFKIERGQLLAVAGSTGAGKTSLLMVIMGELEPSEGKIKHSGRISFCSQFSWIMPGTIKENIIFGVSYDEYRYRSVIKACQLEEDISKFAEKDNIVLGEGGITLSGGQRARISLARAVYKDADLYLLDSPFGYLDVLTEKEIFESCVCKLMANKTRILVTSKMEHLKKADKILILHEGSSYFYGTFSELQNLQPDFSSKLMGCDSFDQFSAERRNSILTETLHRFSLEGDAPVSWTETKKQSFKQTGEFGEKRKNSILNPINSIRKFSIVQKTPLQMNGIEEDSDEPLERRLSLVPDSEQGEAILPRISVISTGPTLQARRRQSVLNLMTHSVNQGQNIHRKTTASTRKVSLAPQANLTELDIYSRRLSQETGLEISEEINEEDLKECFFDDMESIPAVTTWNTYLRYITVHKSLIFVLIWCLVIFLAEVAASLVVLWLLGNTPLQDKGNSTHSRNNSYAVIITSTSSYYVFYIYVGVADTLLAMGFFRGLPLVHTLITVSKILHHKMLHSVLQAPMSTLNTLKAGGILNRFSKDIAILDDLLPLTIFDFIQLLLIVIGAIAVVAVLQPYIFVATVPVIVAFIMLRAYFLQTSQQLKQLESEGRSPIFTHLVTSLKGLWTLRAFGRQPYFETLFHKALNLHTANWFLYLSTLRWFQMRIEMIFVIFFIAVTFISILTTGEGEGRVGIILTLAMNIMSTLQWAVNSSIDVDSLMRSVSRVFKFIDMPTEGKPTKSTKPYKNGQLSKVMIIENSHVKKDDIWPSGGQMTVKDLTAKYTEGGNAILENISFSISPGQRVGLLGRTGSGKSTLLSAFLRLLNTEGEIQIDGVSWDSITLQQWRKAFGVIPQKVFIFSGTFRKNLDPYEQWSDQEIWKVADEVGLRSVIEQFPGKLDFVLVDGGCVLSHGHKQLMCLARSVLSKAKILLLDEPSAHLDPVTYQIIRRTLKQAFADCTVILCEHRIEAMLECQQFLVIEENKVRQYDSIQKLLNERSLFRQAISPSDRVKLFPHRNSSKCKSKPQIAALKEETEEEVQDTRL
Assay: Ussing chamber short-circuit current on lacrimal gland epithelial cells expressing non-mutated CFTR
Assay type: cell-based
Conditions: apical pole; FIG. 2; read-out: EC50 activity for the apical pole
PROPERTY_MEASURED: EC50

> print(dat)
                         structure.notation  observed.value
1  COc1ccc2c(c1OC)C(=O)O[C@@H]2[C@H]1c2c(cc3c(c2OC)OCO3)CCN1C         3.42 µM
